Hello, the source for this data is patent US11964971B2, in case you need it.

# Tested on: MDR1
# PROTOCOL TEXT: in vitro
# RECORDED CONDITIONS: dog, MDCK-MDR1, pH 7.4, MDCK-MDR1: Papp B-A (10^−6, cm/s)
Entries annotated with measured Papp B→A at 120 min, 5 μM
ENDPOINT LABEL: Papp B→A at 120 min, 5 μM

• O=c1cc(-c2ccc(-c3cnc(N(C4CC4)[C@H]4C[C@@H]5CCC(N5)[C@H]4F)cn3)c(O)c2)ccn1CF (single isomer, unassigned) [Compound 54E2] = 44 ×10⁻⁶ cm/s
• CN(c1cnc(-c2ccc(-c3cnn(CF)c3)cc2O)cn1)[C@H]1C[C@@H]2CCC(N2)[C@H]1F (single isomer, unassigned) [Compound 42E2] = 31.8 ×10⁻⁶ cm/s
• COc1cc(-c2cc(O)c(-c3cnc(N(C4CC4)[C@H]4C[C@@H]5CCC(N5)[C@H]4F)cn3)cc2F)cc(F)n1 (single isomer, unassigned) [Compound 37E2] = 2.58 ×10⁻⁶ cm/s
